Hello, the source for this data is patent US8552037B2, in case you need it.

Record type: log10 of IC50 measurement. Applies to: human melatonin 2 receptors (human MT2 receptors) (Homo sapiens (Human))
parameter_measured: log10 of IC50 (log10 of the value in nM)

| compound | target_entity | log10 of IC50 |
| --- | --- | --- |
| CCC(=O)NCC[C@@H]1CCc2ccc3nc(C)oc3c21 [Example 15] | human melatonin 2 receptors (human MT2 receptors) (Homo sapiens (Human)) | -1.31 |
| CC(=O)NCCC1CCc2ccc3nc(C4CC4)oc3c21 (centres unmarked) [Example 29] | human melatonin 2 receptors (human MT2 receptors) (Homo sapiens (Human)) | -0.12 |
| CC(=O)NCC[C@H]1CCc2ccc3nc(C)oc3c21 [Example 13] | human melatonin 2 receptors (human MT2 receptors) (Homo sapiens (Human)) | 0.98 |
| CC(=O)NCCC1CCc2ccc3nc(C)sc3c21 (centres unmarked) [Example 19] | human melatonin 2 receptors (human MT2 receptors) (Homo sapiens (Human)) | -0.55 |
| CCC(=O)NCC=C1CCc2ccc3nc(C)oc3c21 [Example 5] | human melatonin 2 receptors (human MT2 receptors) (Homo sapiens (Human)) | -0.66 |
| Cc1nc2ccc3c(c2o1)C(CCNC(=O)C1CC1)CC3 (centres unmarked) [Example 43] | human melatonin 2 receptors (human MT2 receptors) (Homo sapiens (Human)) | -0.11 |
| CC(=O)NCC[C@@H]1CCc2ccc3nc(C)oc3c21 [Example 12] | human melatonin 2 receptors (human MT2 receptors) (Homo sapiens (Human)) | -0.89 |
| CC(=O)NCCC1=CCc2ccc3nc(C)oc3c21 [Example 4] | human melatonin 2 receptors (human MT2 receptors) (Homo sapiens (Human)) | -0.62 |
